Provenance of the data: ChEMBL document CHEMBL1770099

molecular target: D(3) dopamine receptor (Homo sapiens); assay: Agonist activity at human dopamine D3 receptor expressed in dhfr-deficient CHO cells assessed as [3H]thymidine incorporation
Sequence (P35462 whole entry): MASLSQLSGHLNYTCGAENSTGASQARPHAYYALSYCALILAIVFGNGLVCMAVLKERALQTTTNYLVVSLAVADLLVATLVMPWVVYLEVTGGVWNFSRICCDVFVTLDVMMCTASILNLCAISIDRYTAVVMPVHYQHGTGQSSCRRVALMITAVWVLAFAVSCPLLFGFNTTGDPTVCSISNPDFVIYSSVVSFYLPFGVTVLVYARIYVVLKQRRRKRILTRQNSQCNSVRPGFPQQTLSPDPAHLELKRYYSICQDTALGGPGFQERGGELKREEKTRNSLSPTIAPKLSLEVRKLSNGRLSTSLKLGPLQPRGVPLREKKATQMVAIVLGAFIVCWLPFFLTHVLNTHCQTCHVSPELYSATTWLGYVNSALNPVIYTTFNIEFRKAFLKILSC
METRIC: EC50 (nM)

These recorded examples may help you get a feel for the data.
# SMILES DATA, EC50, nM
rows = [
    ("COc1ccccc1N1CCN(CCCCN2CCc3cc(-c4ccco4)ccc3C2=O)CC1", 2.3),
    ("COc1ccccc1N1CCN(CCCCN2CCc3cc(-c4ccccc4)ccc3C2=O)CC1", 3.3),
]

(A) COc1ccccc1N1CCN(CCCCN2CCCc3ccccc3C2=O)CC1
(B) COc1ccccc1N1CCN(CCCCN2CCc3cc(-c4cccs4)ccc3C2=O)CC1
**Q:** Look at A and B . Which one has the lower recorded EC50 number? Pick one; state its label.
**A:** A
(A: 0.33 nM, B: 2.8 nM)
